test: Toxicity liver stage against HepG2, at 10uM; assay type: cell-based; design: test concentration 10 uM, cell line HepG2-A16-CD81EGFP; details: human, HepG2-A16-CD81EGFP cells; read-out: INHIBITION
Collected cytotoxicity at 10 µM values appear next to each entry.
Reported endpoint: cytotoxicity at 10 µM (%)

[[record]]
compound = "Cc1nc(C)n(Cc2cccc(NC(=O)NC(C)(CO)C3CC3)c2)n1 (stereo unspecified)"
endpoint_value = 14.3

[[record]]
compound = "CS(=O)(=O)N1CCCC(C(=O)Nc2cnn(COCC(F)(F)F)c2)C1 (stereo unspecified)"
endpoint_value = -11.5

[[record]]
compound = "Cc1nc(C)n(CC2CCCN2Cc2ncc(C(C)(C)C)o2)n1 (stereo unspecified)"
endpoint_value = -5.53

[[record]]
compound = "COc1ccccc1C1CNC(=O)c2nc(-c3ncc[nH]3)[nH]c2C1 (stereo unspecified)"
endpoint_value = -8.6

[[record]]
compound = "CNCC(=O)N1CCCC(c2cccc(Nc3nc(C)cc(C)n3)n2)C1 (stereo unspecified)"
endpoint_value = -5.07

[[record]]
compound = "CCNc1ncc(C(=O)NCCc2csc(-c3ncccn3)n2)cn1"
endpoint_value = 19.9

[[record]]
compound = "Cn1cc(CC2CC(=O)N(Cc3ccc(Cl)cc3)C2=O)cn1 (stereo unspecified)"
endpoint_value = -0.276

[[record]]
compound = "CN(C)CCN1CCOCC2(CCCN(C(=O)c3ccoc3)C2)C1 (stereo unspecified)"
endpoint_value = 4.87

[[record]]
compound = "Cc1nn(CC(=O)Nc2ccc(F)cc2)c(N)c1C#N"
endpoint_value = 13.3

[[record]]
compound = "COc1ccc(N2CCC(NS(=O)(=O)N(C)C(C)C)CC2)cc1"
endpoint_value = 6.62

[[record]]
compound = "CN(C)CC(C)(C)Cn1cnc(-c2ccccc2)c1-c1ncc[nH]1"
endpoint_value = 9.21

